Hey, just so you know, these numbers are from ChEMBL document CHEMBL1201862.

Test system: MOLT-4
Experiment: NCI tumour cell line growth inhibition, 48 h
Calls of active or inactive are those of the source. Rule as the data show it: active = GI50 up to about 1.1 µM and inactive = higher.

| molecule | targetSystem | GI50 |
| --- | --- | --- |
| CC1(C)CCCCCCC2CC2CCCCCC(C)(C)C1=O (stereo not drawn) | MOLT-4 | 33.5 µM (inactive) |
| CCN1C(=O)C(=C/C=C/c2ccc(N(CC)CC)cc2)C(=O)N(CC)C1=S | MOLT-4 | 33.9 µM (inactive) |
| CCCCNC(=O)c1cc2c(cc1Cl)Sc1nccn1S2(=O)=O | MOLT-4 | 79.6 µM (inactive) |

* * *

Listing of entries alongside the reported GI50.
System: SF-295
Test: NCI tumour cell line growth inhibition, 48 h
Active and inactive are the calls of the source. Rule as the data show it: active = GI50 up to about 1.1 µM and inactive = higher.

| compound | targetSystem | GI50 |
| --- | --- | --- |
| C#CC(O)/C=C/CCCCCCC#CC/C=C\CC#CCCCCCCCCC(O)C#C (configuration not stated) | SF-295 | 15.1 µM (inactive) |
| O=C1COc2cccnc2N1CCCCO | SF-295 | > 100 µM (inactive) |
| O=C(N/C(=C\c1ccccc1Cl)c1nc2ccccc2[nH]1)c1ccccc1 | SF-295 | 17 µM (inactive) |
| CC(=O)N(C)c1cc(NCc2ccccc2)ccc1OCc1ccccc1 | SF-295 | 15.4 µM (inactive) |
| O=C1C=C(c2ccccc2)OC1C1Sc2ccccc2NC1=O (configuration not stated) | SF-295 | 5.98 µM (inactive) |
| C[C@]12CC[C@H](OC3CCCCO3)CC1=CC[C@@H]1C2CC[C@]2(C)/C(=N/O)CCC12 (some centres not stated) | SF-295 | 15.1 µM (inactive) |
| NN(CC(=O)O)CC(=O)O | SF-295 | > 100 µM (inactive) |

* * *

System: HOP-92
Assay: NCI tumour cell line growth inhibition, 48 h
Activity calls are given as the source filed them. Cut-off read from the data, not from the text of the source: active = GI50 up to about 1.1 µM and inactive = higher.
Listing of entries alongside the reported GI50.

| compound | targetSystem | GI50 |
| --- | --- | --- |
| C#CCOCCCC(=O)O | HOP-92 | > 100 µM (inactive) |
| COP(=O)(OC)C(=O)N1N(c2ccc([N+](=O)[O-])cc2)C(=O)C(C)NC1(NNc1ccc([N+](=O)[O-])cc1)P(=O)(OC)OC (stereo unspecified) | HOP-92 | > 100 µM (inactive) |
| CC1(C)CCC2=C(O1)/C(=N\Nc1ccc(S(N)(=O)=O)cc1)c1ccccc1C2=O | HOP-92 | 12.4 µM (inactive) |
| CC(=O)OCC1OC(n2cnc3nc(Br)[nH]c(=O)c32)C(OC(C)=O)C1OC(C)=O (stereo unspecified) | HOP-92 | > 100 µM (inactive) |
| CC(C)(Oc1ccc(C(=O)c2ccc(Cl)cc2)cc1Cl)C(=O)Nc1c(Cl)cccc1Cl | HOP-92 | > 100 µM (inactive) |
| CC(=O)OC1(C)C(=O)OC1(C)C(C)=O (stereo unspecified) | HOP-92 | > 100 µM (inactive) |

* * *

Tested on: SK-OV-3
Test: NCI tumour cell line growth inhibition, 48 h
Activity calls are given as the source filed them. Cut-off read from the data, not from the text of the source: active = GI50 up to about 1.1 µM and inactive = higher.
Listing of entries alongside the reported GI50.
measuredAttribute: GI50

| molecule | result |
| --- | --- |
| COC(=O)[C@]1(C)C(OC)=CC(=O)C2C1[C@H]1CCC[C@@H]21 (stereo partly specified) | > 100 µM (inactive) |
| O=c1cc(/C=C/c2ccccc2)c2ccc(O/C(=C\c3ccccc3)c3nc4ccccc4c(=O)o3)cc2o1 | 39.4 µM (inactive) |
| NCCN1C(=O)c2ccccc2C1(O)c1ccc(Cl)cc1 (stereo unspecified) | 24.4 µM (inactive) |
| O=C(NO)c1ccc(O)c(O)c1 | > 100 µM (inactive) |
| CN(C(=O)Cc1cc(Cl)c(Cl)cc1N=C=S)[C@H]1CCCC[C@@H]1N1CCCC1 | 18 µM (inactive) |
| C/C(=N/NS(=O)(=O)c1ccc(C)cc1)c1cccc[n+]1[O-] | > 100 µM (inactive) |

* * *

Tested on: Malme-3M
Assay: NCI tumour cell line growth inhibition, 48 h
Calls of active or inactive are those of the source. Cut-off read from the data, not from the text of the source: active = GI50 up to about 1.1 µM and inactive = higher. Peptide text beside a SMILES is read from it. * marks the point of attachment. Cbz = O=C(OCc1ccccc1)*; Boc = CC(C)(C)OC(=O)*; OBn = c1ccc(CO*)cc1
Labels: active, inactive

| molecule | targetSystem | qualitativeLabel |
| --- | --- | --- |
| COC(=O)C(CCCCNC(=O)OCc1ccccc1)NC(=O)C(CCC(=O)OCc1ccccc1)NC(=O)OC(C)(C)C (stereo not given) (Boc-Glu(OBn)-Lys(Cbz)-OMe; configuration not given here) | Malme-3M | inactive |
| c1ccc2c3nnc(c2c1)SCCSCCSc1nnc(c2ccccc12)SCCSCCS3 | Malme-3M | inactive |
| CC1C(=O)O[C@H]2C1CC[C@@]1(C)[C@H](O)CC[C@@]13C[C@]2(O)OO3 (stereo not given in full) | Malme-3M | inactive |
| CN1CC2CC(C1)c1cccc(=O)n1C2 (stereo not given) | Malme-3M | inactive |
| O=C(O)c1nnsc1COCc1ccccc1 | Malme-3M | inactive |
| CC(=O)Nc1ccccc1NC1CC(C)N(c2ccccc2)N1C(C)=O (stereo not given) | Malme-3M | inactive |
| COC(=O)c1ccc(Oc2nc3ccccc3nc2-c2cccs2)cc1 | Malme-3M | inactive |
| CC(=O)c1c(CO[N+](=O)[O-])[n+]([O-])c2ccccc2[n+]1[O-] | Malme-3M | inactive |
| O=C1CSC(=S)N1 [RHODANINE] | Malme-3M | inactive |
| CC(=O)Nn1c(=S)[nH]c2ccccc21 | Malme-3M | inactive |
| O=c1c(-c2ccccc2)c(SCCN2CCCC2)n(-c2ccccc2)c(=S)n1-c1ccccc1 | Malme-3M | inactive |
| CC(=O)OCC1OC(n2cccnc2=O)C(OC(C)=O)C1OC(C)=O (stereo not given) | Malme-3M | inactive |
| CN1C(=O)CC2(C)c3cc(C=O)ccc3N(C)C12 (stereo not given) | Malme-3M | inactive |
| CN(C)c1n/c(=N/Cc2ccccn2)ss1 | Malme-3M | inactive |
| CC(=NNC(=S)Nc1cccc(C)c1)c1cccc(C(C)=NNC(=S)Nc2cccc(C)c2)n1 | Malme-3M | inactive |
| CC(C)CCC1(O)O[C@H]2C[C@H]3[C@@H]4CCC5CC(=O)C=C[C@]5(C)[C@H]4CC[C@]3(C)[C@H]2[C@@H]1C (stereo not given in full) | Malme-3M | inactive |
| NC1CC(=O)c2csc(Br)c21 (stereo not given) | Malme-3M | inactive |
| CCOC(=O)Cn1c(=O)c2cc(-c3ccccc3)cc3c(Cl)nc4c(OC)c(OC)cc1c4c32 | Malme-3M | active |
| O=CN(O)CC(=O)O | Malme-3M | inactive |
| CN(C)C(=O)Oc1c(-c2ccccc2)c(=O)n2c3ccccc3n3c(=O)n(C)c(=O)c1c23 | Malme-3M | inactive |

* * *

Listing of entries alongside the reported GI50.
Tested on: LXFL 529
Test: NCI tumour cell line growth inhibition, 48 h
Calls of active or inactive are those of the source. Rule as the data show it: active = GI50 up to about 1.1 µM and inactive = higher.

| compound | GI50 |
| --- | --- |
| O=C(COc1ccc(Br)cc1Br)N1N=C(c2ccc([N+](=O)[O-])o2)CC1(O)c1ccccc1 (stereo not given) | 8.73 µM (inactive) |
| CC1CC#CCOC(=O)CCCC1=O (stereo not given) | > 100 µM (inactive) |
| CC1(C)CCCC2(C)[C@@H]1CC[C@@]13CC(=O)[C@@](C)(CC[C@@H]21)C3 (stereo not given in full) | 80.2 µM (inactive) |
| CS(=O)(=O)OCCN(CCOS(C)(=O)=O)c1ccc(C=O)cc1 | 18.1 µM (inactive) |
| CC1c2c(Cl)nc3ccccc3c2Oc2c1c(Cl)nc1ccccc21 | 53.5 µM (inactive) |

* * *

Test system: OVCAR-8
Assay: NCI tumour cell line growth inhibition, 48 h
The source made the active and inactive calls. No stated cut-off is given here; in the data, active = GI50 up to about 1.1 µM and inactive = higher.
Labels: active, inactive

| compound | qualitativeLabel |
| --- | --- |
| CC(OC(=O)NCn1cc(-c2ccccc2)nn1)c1ccccc1 (configuration not stated) | inactive |
| Cn1c2ccccc2n2c3ccccc3c(=S)c(C#N)c12 | inactive |
| O=S(=O)(O)c1c(Cl)cc(O)c2ncccc12 | inactive |
| c1ccc(C2=C(c3ccccc3)P(c3ccccc3)C2)cc1 (configuration not stated) | inactive |
| O=C(COc1ccc(Br)cc1Br)N1N=C(c2ccc([N+](=O)[O-])o2)CC1(O)c1ccccc1 (configuration not stated) | inactive |
| NC(=S)N/N=C\c1nccc2ccccc12 | active |
| COc1ccc(NC(=O)C2C(=O)N(c3ccc(OC)cc3)C(=O)/C2=N\NC(N)=O)cc1 (configuration not stated) | inactive |
| COc1cc(C2SCC(=O)N2c2ccc(Cl)cc2)cc(I)c1O (configuration not stated) | inactive |
| Cc1nc(O)c2ncn(CCO)c2n1 | inactive |
| OC1(C(F)(F)F)OCCN=C1C(F)(F)F (configuration not stated) | inactive |
| C=CCN1CCC(OC(=O)C(O)(/C=C\CC)C2CCCC2)CC1 (configuration not stated) | inactive |
| CCOC(=O)c1nnsc1NN | inactive |
| O=C1CC(NC2CC(=O)c3c(Br)sc(Br)c32)c2c(Br)sc(Br)c21 (configuration not stated) | inactive |
| COC(=O)CC(C#N)(OP1(=O)OC(c2ccccc2)C(C)N1C)c1ccccc1 (configuration not stated) | inactive |
| COc1ccc(-c2nc(N(C)C)c3ccccc3n2)cc1 | inactive |
| COc1cccc2c1C(=O)c1ccc3cc(CCl)cc(O)c3c1C2=O | active |
| CC(C)c1ccc2nc3ccc(C(=O)NCCN(C)C)cn3c(=O)c2c1 | inactive |
| N#CCCN(CCC#N)c1ccc(/C=C(\NC(=O)c2cc([N+](=O)[O-])ccc2Cl)C(=O)Nc2ccccc2)cc1 | inactive |
| Cc1cn([C@H]2C=C[C@@H](CO)O2)c(=O)[nH]c1=O | inactive |
| Cc1cc(N(CCC#N)CCC#N)ccc1/C=C(\NC(=O)/C=C/c1ccccc1)C(=O)Nc1ccc(Cl)cc1 | inactive |
| CCc1c(CN)c(CC)c(CNC2=NCCN2)c(CC)c1CNC1=NCCN1 | inactive |
| CCOc1ccccc1N1CSc2nnc(-c3ccccc3)n2C1 | inactive |
| N#CCCN(C1=NN(C(=O)CC(=O)Nc2ccc(Cl)cc2)C(c2ccccc2)C1)c1ccc(Cl)cc1 (configuration not stated) | inactive |
| O=c1c2cc(Br)cc(Br)c2nc(CCCl)n1-c1ccc(O)c([N+](=O)[O-])c1 | inactive |
| COC(=O)C(=O)C(C(=O)C(=O)Nc1ccccc1OC)c1nc2ccc([N+](=O)[O-])cc2nc1O (configuration not stated) | inactive |
| Cn1c(-c2ccco2)ccc1-c1ccc(C=O)o1 | inactive |
| CC1=C(/C=C/C(C)=C/C=C/C(C)=C/C=C/C=C(C)/C=C/C=C(C)/C=C/C=C(C)/C=C/C=C(\C)C(=O)O)C(C)(C)CCC1 | inactive |
| O=C(NO)c1ccc(O)c(O)c1 | inactive |
| COC(=O)CCC(=O)C(CC(=O)OC)C(=O)CCC(=O)NCCc1ccccc1 (configuration not stated) | inactive |
| CC(=O)OC12c3ccccc3-c3ccccc3C1C(C(=O)O)C2(Cl)C(=O)O (configuration not stated) | inactive |
| CCOC(=O)N1CCC2(CC1)C[C@@](C(C)=O)(c1ccccc1)C(C)O2 (some centres not stated) | inactive |
| O=C(/C=C/c1ccc2ccccc2c1)NCc1ccc(C(=O)NCCc2ccccc2)cc1 | inactive |
